PARTICULARS: solvent in water, visual assessment of undissolved solvent
Classify by measured Water solubility: Met if it is equal to or exceeds 1 % w/w, Not met if it is smaller.

> print(dat)
                                   compound  classification
 1   CCCCCCCC1CCCC(=O)O1 (stereo not shown)         Not met
 2       CCCCC1CCC(=O)O1 (stereo not shown)         Not met
 3    CCCC(C)C1CCC(=O)O1 (stereo not shown)         Not met
 4      CCCCC1OC(=O)CC1C (stereo not shown)         Not met
 5      CCCCC1CCCC(=O)O1 (stereo not shown)             Met
 6      CCCCCC1CCC(=O)O1 (stereo not shown)         Not met
 7     CCCCCC1CCCC(=O)O1 (stereo not shown)         Not met
 8         CCC1CCC(=O)O1 (stereo not shown)             Met
 9   CCCC(C)C1OC(=O)CC1C (stereo not shown)         Not met
10   CCCCCCCCC1CCC(=O)O1 (stereo not shown)         Not met
11  CCCCCCCCC1CCCC(=O)O1 (stereo not shown)         Not met
12          CC1CCC(=O)O1 (stereo not shown)             Met
13     CCCCCCC1CCC(=O)O1 (stereo not shown)         Not met

This collection of values is drawn from patent US20260101887A1.
